Metric name: melting point

Sample CCC(=O)N(c1cc(Cl)cc(Cl)c1)c1nc2cc(Cl)ccc2c(=O)[nH]1 ; melting point observed: 223 to 225 °C

The compound listed as O=C(CO)N(c1cc(Cl)cc(Cl)c1)c1nc2cc(Cl)ccc2c(=O)[nH]1 shows melting point equal to 263 to 265 °C

// field: melting point; key: O=C(C(O)OCc1ccccc1)N(c1cc(Cl)cc(Cl)c1)c1nc2cc(Cl)ccc2c(=O)[nH]1 (centres unmarked) ; value = 282 to 284 °C

Sure, the documented melting point for CN(c1cc(Cl)cc(Cl)c1)c1nc2cc(Cl)ccc2c(=O)[nH]1 is 287 to 289 °C

Documented melting point of Cc1ccc(S(=O)(=O)N(c2cc(Cl)cc(Cl)c2)c2nc3cc(Cl)ccc3c(=O)[nH]2)cc1 : 163 to 165 °C

Memo: O=c1[nH]c(Nc2cc(Cl)cc(Cl)c2)nc2cccc(O)c12 , reported melting point: > 300 °C

Entry COC(=O)N(c1cc(Cl)cc(Cl)c1)c1nc2cc(Cl)ccc2c(=O)[nH]1 — recorded melting point = 218 to 220 °C

# compound CC(=O)N(c1cc(Cl)cc(Cl)c1)c1nc2cc(Cl)ccc2c(=O)[nH]1 ; its melting point = 236 to 238 °C
